System: 616215-338-R-J1-PDC complex spheroid viability;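 also: spheroids exposed to compounds for one week before readout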
Assay: Anticancer human tumor 616215-338-R-J1-PDC patient-derived colon adenocarcinoma cell line growth inhibition [POLQ]
Details: curve of first compound; second compound 0.316 µM
Method: Multicellular complex tumor spheroid response to Polymerase (POL) inhibitors (novobiocin, ART-558, RP6685) in combination with a variety of drugs and investigational agents in selected tumor cell lines The POL inhibitors (novobiocin, ART-558, and RP6685) were evaluated both individually and in combination with standard of care and investigational anticancer small molecules within a complex spheroid model of solid tumors. . […]
Value type: IC50

Known IC50 results, listed for orientation:
{"columns": ["Compound", "IC50"],
 "data": [
  ["C=CC(=O)N1CCN(c2nc(=O)n(-c3c(C)ccnc3C(C)C)c3nc(-c4c(O)cccc4F)c(F)cc23)C(C)C1 (stereo not given) + Cc1cccc(N(C)C(=O)C2C(O)CCN2c2nc(C)cc(C(F)(F)F)c2C#N)c1", "> 10 µM"],
  ["O=C(c1cc(Cc2n[nH]c(=O)c3ccccc23)ccc1F)N1CCN(C(=O)C2CC2)CC1 + Cc1cccc(N(C)C(=O)C2C(O)CCN2c2nc(C)cc(C(F)(F)F)c2C#N)c1", "> 10 µM"],
  ["CC1COCCN1c1cc(-c2ccnn2C)c2ccnc(-c3ccn[nH]3)c2n1 (stereo not given) + Cc1cccc(N(C)C(=O)C2C(O)CCN2c2nc(C)cc(C(F)(F)F)c2C#N)c1", "> 10 µM"],
  ["CC[C@@]1(O)C(=O)OCc2c1cc1n(c2=O)Cc2cc3c(CN(C)C)c(O)ccc3nc2-1 + Cc1cccc(N(C)C(=O)C2C(O)CCN2c2nc(C)cc(C(F)(F)F)c2C#N)c1", "> 0.1 µM"],
  ["O=C(Nc1ccc(O)c(NS(=O)(=O)c2ccc(F)cc2)c1)c1ccc(-c2ccccc2)cc1 + COC1C(OC(N)=O)C(O)C(Oc2ccc3c(O)c(NC(=O)c4ccc(O)c(CC=C(C)C)c4)c(=O)oc3c2C)OC1(C)C", "> 10 µM"],
  ["CC(=O)O[C@H]1C(=O)[C@@]2(C)[C@H]([C@H](OC(=O)c3ccccc3)[C@]3(O)C[C@H](OC(=O)[C@H](O)[C@@H](NC(=O)c4ccccc4)c4ccccc4)C(C)=C1C3(C)C)[C@]1(OC(C)=O)CO[C@@H]1C[C@@H]2O + Nc1ccc(C#CCN(C(=O)Cc2ncc(C(F)(F)F)cc2C(F)(F)F)c2ccc(F)cc2)nn1", "< 0.00949 µM"],
  ["COc1cc2cc(C(=O)CCC(=O)O)sc2cc1OC + COC1C(OC(N)=O)C(O)C(Oc2ccc3c(O)c(NC(=O)c4ccc(O)c(CC=C(C)C)c4)c(=O)oc3c2C)OC1(C)C", "> 10 µM"],
  ["C#Cc1c(F)ccc2cc(O)cc(-c3ncc4c(N5CC6CCC(C5)N6)nc(OCC56CCCN5CC(F)C6)nc4c3F)c12 (stereo not given) + Cc1cccc(N(C)C(=O)C2C(O)CCN2c2nc(C)cc(C(F)(F)F)c2C#N)c1", "> 10 µM"]
]}

IC50 reading for CC(=O)O[C@H]1C(=O)[C@@]2(C)[C@H]([C@H](OC(=O)c3ccccc3)[C@]3(O)C[C@H](OC(=O)[C@H](O)[C@@H](NC(=O)c4ccccc4)c4ccccc4)C(C)=C1C3(C)C)[C@]1(OC(C)=O)CO[C@@H]1C[C@@H]2O + Cc1cccc(N(C)C(=O)C2C(O)CCN2c2nc(C)cc(C(F)(F)F)c2C#N)c1 : < 0.00949 µM

IC50 reading for CC[C@@]1(O)C(=O)OCc2c1cc1n(c2=O)Cc2cc3c(CN(C)C)c(O)ccc3nc2-1 + COC1C(OC(N)=O)C(O)C(Oc2ccc3c(O)c(NC(=O)c4ccc(O)c(CC=C(C)C)c4)c(=O)oc3c2C)OC1(C)C : > 0.1 µM

The values you see were collected from PubChem BioAssay AID1963843.
